// data source = paper PMC5540273

Test system: MUSK
Conditions: concentration: 1 μM,replicates: in singlicate; n = 1;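 note: KINOMEscan kinase panel screen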
outcomeMeasure: %Inh
Note to self: number, then unit, no commentary.

These recorded examples may help you get a feel for the data.
COc1cccc(CNC(=O)NC2CCN(c3ccnc(Nc4cc(OC)c(OC)c(OC)c4)n3)C2)c1 (centres unmarked) | 83%
CC(=O)Nc1nc2cnc(Nc3cc(NC(=O)c4cccc(CC(C)(C)C#N)c4)ccc3C)nc2s1 | 2%
C[C@@H](Oc1cc(-n2cnc3cc(-c4ccncc4)ccc32)sc1C(N)=O)c1ccccc1Cl | 11%
CS(=O)(=O)Nc1ccc(-c2ccnc3[nH]ccc23)cc1 | 24%
COc1cc2ncn(-c3cc(OCC4CCCCC4)c(C(N)=O)s3)c2cc1OC | 4%

Take each entry in turn and give its %Inh.
1. C[C@@H](Oc1cc(-n2cnc3cc(-c4cnn(C)c4)ccc32)sc1C(N)=O)c1ccccc1Cl
2. O=C(NCC1CC1)c1ccc(-c2cc(C(=O)NC3CC3)ccc2F)cc1

["64%", "0%"]

Can you look up the measured %Inh of CS(=O)c1ccc(-c2coc3ccc(-c4n[nH]c(=O)o4)cc23)cc1 (centres unmarked) for me?
0%

---

Tested on: MARK2
Conditions: concentration: 1 μM,replicates: in singlicate; n = 1
Criterion: %Inh meeting or surpassing 6%. Met: Criterion met. Not met: Criterion not met.

Some solved entries appear below for comparison.
COc1cc2ncn(-c3cc(OCC4CCCCC4)c(C(N)=O)s3)c2cc1OC | Criterion not met
CCCC(=O)Nc1n[nH]c2ncccc12 | Criterion not met
Cl.Nc1n[nH]c2cc(-c3ccccn3)ccc12 | Criterion not met
CN(c1cccc(CNc2nc(Nc3ccc4c(c3)CC(=O)N4)ncc2C(F)(F)F)c1)S(C)(=O)=O | Criterion met
NC(=O)c1ccc(-c2cc3ncnc(SCC(=O)O)c3s2)cc1 | Criterion met
CC(=O)c1c(-c2ccncc2)[nH]c(-c2ccncc2)c1C | Criterion not met
FC(F)(F)c1cc(Br)cc(Nc2nccc(-c3cnn4ncccc34)n2)c1 | Criterion not met
Cc1ccn2nc(-c3ccc(F)cc3)c(-c3ccncc3)c2c1.Cl | Criterion not met
O=C1NCCc2[nH]c(-c3ccncc3)cc21 | Criterion met
Cl.Cl.NC[C@H](CC1CCCCC1)NC(=O)c1ccc(-c2ccnc3[nH]ccc23)s1 | Criterion met

Turning now to a further molecule:
Given "CC(=O)Nc1nc2cnc(Nc3cc(NC(=O)c4cccc(CC(C)(C)C#N)c4)ccc3C)nc2s1" , state whether its %Inh is at least 6%.
Criterion not met

---

System: WNK4
Details: concentration: 1 μM,replicates: in singlicate; n = 1
outcomeMeasure: %Inh (%)
One number for each entry, in %.

Illustrative cases are given below, each with its answer.
C[C@@H](Oc1cc(-n2cnc3cc(-c4ccncc4)ccc32)sc1C(N)=O)c1ccccc1Cl | 2
Cc1nnc(-c2ccc3occ(-c4ccc(S(C)=O)cc4)c3n2)o1 (stereo not drawn) | 0
CN1CCN(CCCNc2nccc(-c3c(-c4ccc(F)cc4)nn4cc(C(N)=O)ccc34)n2)CC1 | 14
Cc1n[nH]c2cc(Nc3ccnc(Nc4cccc(CN5CCOCC5)c4)n3)ccc12 | 32
CC(=O)Nc1nc2cnc(Nc3cc(NC(=O)c4cccc(CC(C)(C)C#N)c4)ccc3C)nc2s1 | 26

# batch size: 4; output %Inh per entry
1. Cc1ccn2nc(-c3ccc(F)cc3)c(-c3ccncc3)c2c1.Cl
2. COc1cccc(CNC(=O)NC2CCN(c3ccnc(Nc4cc(OC)c(OC)c(OC)c4)n3)C2)c1 (stereo not drawn)
3. CCNCC(Cc1ccccc1)NC(=O)c1cc(Br)c(-c2ccnc3[nH]ccc23)s1.Cl.Cl (stereo not drawn)
4. Cn1cc(-c2cccc3c(N)c(C(N)=O)nnc23)cn1

1. 55
2. 43
3. 28
4. 0
